Numbers sourced from patent US20110040072A1.

# test.protocol: Oral bioavailability / oral pharmacokinetics of oxycodone conjugates in rats
# experimental.context: relative to OXY = 100, n = 4 animals, analysis by LC-MS
We use 80 % AUC as the dividing line for Oral (% AUC): on or above the line is fulfilled, below is not fulfilled.

# compound, category.label
data = [
    ("COc1ccc2c3c1O[C@H]1C(OC(=O)[C@H](Cc4ccccc4)NC(=O)CNC(=O)CN)=CC[C@@]4(O)[C@@H](C2)N(C)CC[C@]314 [Gly-Gly-Phe-OC]", "fulfilled"),
    ("COc1ccc2c3c1O[C@H]1C(OC(=O)[C@H](CC(C)C)NC(=O)[C@H](CCCCN)NC(=O)[C@@H](N)CCCCN)=CC[C@@]4(O)[C@@H](C2)N(C)CC[C@]314 [Lys-Lys-Leu-OC]", "not fulfilled"),
    ("CC[C@H](C)[C@H](NC(=O)[C@H](CCCCN)NC(=O)[C@@H](N)CCCCN)C(=O)OC1=CC[C@@]2(O)[C@H]3Cc4ccc(OC)c5c4[C@@]2(CCN3C)[C@H]1O5 [Lys-Lys-Ile-OC]", "not fulfilled"),
    ("COc1ccc2c3c1O[C@H]1C(OC(=O)[C@@H](NC(=O)[C@H](CCC(=O)O)NC(=O)[C@@H](N)CCC(=O)O)C(C)C)=CC[C@@]4(O)[C@@H](C2)N(C)CC[C@]314 [Glu-Glu-Val-OC]", "not fulfilled"),
    ("COc1ccc2c3c1O[C@H]1C(OC(=O)[C@@H](NC(=O)[C@H](CC(=O)O)NC(=O)[C@@H](N)CC(=O)O)C(C)C)=CC[C@@]4(O)[C@@H](C2)N(C)CC[C@]314 [Asp-Asp-Val-OC]", "not fulfilled"),
    ("COc1ccc2c3c1O[C@H]1C(OC(=O)[C@@H](NC(=O)[C@H](CCCCN)NC(=O)[C@@H](N)CCCCN)C(C)C)=CC[C@@]4(O)[C@@H](C2)N(C)CC[C@]314 [Lys-Lys-Val-OC]", "fulfilled"),
    ("COc1ccc2c3c1O[C@H]1C(OC(=O)[C@@H]4CCCN4C(=O)[C@H](CCC(=O)O)NC(=O)[C@@H](N)CCC(=O)O)=CC[C@@]4(O)[C@@H](C2)N(C)CC[C@]314 [Glu-Glu-Pro-OC]", "not fulfilled"),
    ("CC[C@H](C)[C@H](NC(=O)[C@H](CCC(=O)O)NC(=O)[C@@H](N)CCC(=O)O)C(=O)OC1=CC[C@@]2(O)[C@H]3Cc4ccc(OC)c5c4[C@@]2(CCN3C)[C@H]1O5 [Glu-Glu-Ile-OC]", "fulfilled"),
    ("COc1ccc2c3c1O[C@H]1C(=O)CC[C@@]4(O)[C@@H](C2)N(C)CC[C@]314 [OXY, oxycodone]", "fulfilled"),
    ("COc1ccc2c3c1O[C@H]1C(OC(=O)[C@@H](NC(=O)CNC(=O)CN)C(C)C)=CC[C@@]4(O)[C@@H](C2)N(C)CC[C@]314 [Gly-Gly-Val-OC]", "fulfilled"),
    ("CC[C@H](C)[C@H](N)C(=O)N[C@H](C(=O)N[C@H](C(=O)OC1=CC[C@@]2(O)[C@H]3Cc4ccc(OC)c5c4[C@@]2(CCN3C)[C@H]1O5)[C@@H](C)CC)[C@@H](C)CC [Ile-Ile-Ile-OC]", "fulfilled"),
    ("COc1ccc2c3c1O[C@H]1C(OC(=O)[C@H](Cc4ccccc4)NC(=O)[C@H](CCCCN)NC(=O)[C@@H](N)CCCCN)=CC[C@@]4(O)[C@@H](C2)N(C)CC[C@]314 [Lys-Lys-Phe-OC]", "not fulfilled"),
    ("COc1ccc2c3c1O[C@H]1C(OC(=O)[C@@H](NC(=O)[C@H](C)NC(=O)[C@H](C)N)C(C)C)=CC[C@@]4(O)[C@@H](C2)N(C)CC[C@]314 [Ala-Ala-Val-OC]", "fulfilled"),
    ("COc1ccc2c3c1O[C@H]1C(OC(=O)[C@H](Cc4ccccc4)NC(=O)[C@H](CCC(=O)O)NC(=O)[C@@H](N)CCC(=O)O)=CC[C@@]4(O)[C@@H](C2)N(C)CC[C@]314 [Glu-Glu-Phe-OC]", "not fulfilled"),
]
